The measurements presented in this section are drawn from PubChem BioAssay (NCATS).

Assay: Cytotoxicity counterscreen for inhibitors of SARS-CoV-2 cell entry (AID 1645845); note: nearly all actives have a fitted effect of over 50% in size
Conditions: cell viability (SARS-CoV-2 entry assay cells); series mostly up to 57.1 µM
Inconclusive results are not listed. Active and inactive are the calls of the source. Calls come from the whole dose curve.
Log the outcome using a class from 1 for active, 0 for inactive

Take a look at these entries with their results.
{"columns": ["COMPOUND", "QUALITATIVE_LABEL"],
 "data": [
  ["COc1ccc(CCN(C)CCCC(C#N)(c2ccc(OC)c(OC)c2)C(C)C)cc1OC (centres undefined)", 0],
  ["C[Se]CC[C@H](N)C(=O)O", 0],
  ["CN(C)CCCC1(c2ccc(F)cc2)OCc2cc(C#N)ccc21 (centres undefined)", 0],
  ["C[C@H](c1ccc(F)cc1CCCC(=O)O)N(c1cc(F)ccc1F)S(=O)(=O)c1ccc(Cl)cc1", 0],
  ["C=CC(=O)N1CCC[C@@H](n2nc(-c3ccc(Oc4ccccc4)cc3)c3c(N)ncnc32)C1", 0]
]}

IN: Please share the test call associated with CC1CCC(C(=O)N(c2cc(C#CC(C)(C)C)sc2C(=O)O)C2CCC(O)CC2)CC1 (centres undefined) .
OUT: 0

IN: Please share the test call associated with "C[C@@H](NCc1cc2ccccc2[nH]1)c1cccc2ccccc12" .
OUT: 1

IN: Please share the test call associated with "N[C@H](CO)C(=O)O" .
OUT: 0

IN: Please share the test call associated with "COc1ccc([C@@H]2CC(=O)c3c(O)cc(O[C@@H]4O[C@H](CO[C@@H]5O[C@@H](C)[C@H](O)[C@@H](O)[C@@H]5O)[C@@H](O)[C@H](O)[C@@H]4O)cc3O2)cc1O" .
OUT: 0

###

Test: qHTS Assay for Lipid Storage Modulators (AID 1519)
Settings: Drosophila S3 cells, BODIPY lipid droplet/cell ratio, laser cytometry; measured here: cell count channel max response; cells loaded with oleic acid
Results filed as inconclusive are left out.
In this section, each of the molecules is paired with its reported max response.
Express your answer in %, writing the number without its unit.

Solved entries:
{"columns": ["RECORD_SMILES", "METRIC", "RECORDED_VALUE"],
 "data": [
  ["C=C(C)[C@H]1C2C(=O)O[C@H]1[C@H]1OC(=O)[C@@]34O[C@@H]3C[C@]2(O)[C@@]14C", "max response", 7.99],
  ["N[C@H](CP(=O)(O)O)C(=O)O", "max response", 12.7]
]}

IN: Could you tell me which max response is on file for "C=CCN1CCC2(C)c3cc(O)ccc3C[C@H]1[C@H]2C" ?
OUT: 25.8

###

System: CP194
Test: qHTS profiling for inhibitors of Plasmodium falciparum proliferation (AID 504749); note: nearly all actives have a fitted effect of over 60% in size
Settings: P. falciparum in erythrocytes, SYBR Green DNA, 72 h; series mostly up to 28.7 µM
Protocol: NIH National Institute of Allergy and Infectious Diseases [NIAID] NIH Chemical Genomics Center [NCGC] […] Because mature erythrocytes lack DNA, only Plasmodium-derived DNA is detected. NCGC Assay Protocol Summary: The SYBR Green viability assay was adapted from a method described previously (Plouffe et al., 2008). […] The following morning, fluorescence intensity at 485(14) nm excitation and 535(25) nm emission wavelengths was measured on an EnVision (Perkin Elmer) plate reader. […]
Results filed as inconclusive are left out. Activity calls are given as the source filed them. Calls come from the whole dose curve; as a rule, active = well fitted inhibition curve with a large enough effect; inconclusive = small, poorly fitted or top-dose-only effect; inactive = flat fitted curve, though single readings scatter.
Log the outcome using a class from active, inactive

Take a look at these entries with their results.
{"columns": ["MOLECULE", "QUALITATIVE_LABEL"],
 "data": [
  ["CO[C@H]1[C@@H](O)CC(OC2[C@@H](O)CC(OC3[C@@H](O)C[C@H](OC4CC[C@@]5(C)C(CCC6C5CC(O)[C@]5(C)[C@H](C7=CC(=O)OC7)CCC65O)C4)O[C@@H]3C)O[C@@H]2C)O[C@@H]1C (some centres undefined)", "inactive"],
  ["CCCCCCCCCC[N+](C)(C)CCCCCCCCCC", "active"],
  ["O=C(O)c1ccccc1-c1c2cc(Br)c(=O)cc-2oc2[c]([Hg])c(O)c(Br)cc12", "inactive"]
]}

Attention now shifts to the item below.
IN: Please share the test call associated with "C[N+](C)(C)CC(=O)[O-]" .
OUT: inactive

###

Tested on: PA-1
Experiment: Primary qHTS to identify gynecologic anti-cancer compounds using libraries of approved drugs and bioactive compounds (AID 1345084); note: nearly all actives have a fitted effect of over 55% in size
Details: Gynecologic cancer cell panel viability, ATPlite luminescence, 48 h; series mostly up to 57.5 µM
Records with an inconclusive call do not appear. Active and inactive are the calls of the source. The call rests on the fitted dose curve; in most records, active means well fitted cell-killing curve with a large enough effect; inconclusive means small, poorly fitted or top-dose-only effect, or effect the other way; inactive means flat fitted curve, though single readings scatter.
Log the outcome using a class from active, inactive

{"columns": ["COMPOUND", "QUALITATIVE_LABEL"],
 "data": [
  ["CN1CCN(c2nc3ccccc3nc2Cl)CC1", "inactive"],
  ["Cc1cccc(NC(=O)N[C@H]2CN(C)c3ccccc3C(c3ccccc3)=N2)c1", "inactive"],
  ["CC1=CC2/C=C(\\C)CCCC(O)/C=C/C(=O)OC23C(=O)NC(CC(C)C)C3C1C (centres undefined)", "inactive"],
  ["CC12CCC3C(C1)c1c(cc(O)c(C(=O)c4ccccc4)c1OC3(C)C)O2 (centres undefined)", "inactive"],
  ["C[C@H]1CCC[C@H](O)CCC/C=C/c2cc(O)cc(O)c2C(=O)O1", "inactive"],
  ["C[C@]12CC[C@H](OC3OC(CO)C(O)C(O)C3OC3OC(CO)C(O)C(O)C3O)C[C@@H]1CC[C@@H]1C2CC[C@]2(C)[C@@H](C3=CC(=O)OC3)CC[C@]12O (some centres undefined)", "inactive"]
]}

IN: Please share the test call associated with CCCCOC(=O)c1ccnc2cc(C(OCCN3CCCCC3)c3ccccc3Cl)sc12 (centres undefined) .
OUT: inactive

IN: Please share the test call associated with "CC1=C[C@H]2O[C@@H]3[C@H](O)[C@@H](O)[C@](C)([C@@]2(CO)C[C@@H]1O)[C@]31CO1" .
OUT: active

IN: Please share the test call associated with OC(CNc1ccccc1)Cn1c2ccc(Br)cc2c2cc(Br)ccc21 (centres undefined) .
OUT: inactive

###

Assay: qHTS profiling of the MIPE4 collection as inhibitors of Plasmodium falciparum (DD2) proliferation (AID 743345)
Conditions: P. falciparum Dd2 in erythrocytes, SYBR Green DNA, 72 h; at 28.5 µM (top of the series) unless noted
METRIC: parasite growth remaining, % of DMSO control (lower = more inhibition) (%)
Express your answer in %, writing the number without its unit.

Solved entries:
{"columns": ["COMPOUND", "RECORDED_VALUE"],
 "data": [
  ["CN(C)CCOc1ccc(C(=C(CCCl)c2ccccc2)c2ccccc2)cc1", 55.4],
  ["COc1cc([C@@H]2c3cc4c(cc3[C@H](O)[C@H]3COC(=O)[C@@H]23)OCO4)cc(OC)c1OC", 78.3],
  ["O=C1c2cccc(O)c2C(=O)c2c(O)cc(CO)cc21", 99.1],
  ["CC(=O)N[C@H]1[C@@H]([C@H](O)[C@H](O)CO)OC(C(=O)O)=C[C@@H]1N=C(N)N", 100],
  ["O=c1[nH]c(=O)n([C@H]2C[C@@H](O)[C@@H](CO)O2)cc1C=CBr", 118]
]}

IN: Could you tell me which parasite growth remaining, % of DMSO control (lower = more inhibition) is on file for "C#Cc1cccc(Nc2ncnc3cc(OCCOC)c(OCCO)cc23)c1" ?
OUT: 36.9

IN: Could you tell me which parasite growth remaining, % of DMSO control (lower = more inhibition) is on file for "C[C@H]1[C@H](NC(=O)C(=NOC(C)(C)C(=O)O)c2csc(N)n2)C(=O)N1S(=O)(=O)O" ?
OUT: 91.7

IN: Could you tell me which parasite growth remaining, % of DMSO control (lower = more inhibition) is on file for "CC(=O)N(O)CCCP(=O)(O)O" ?
OUT: 18.6

IN: Could you tell me which parasite growth remaining, % of DMSO control (lower = more inhibition) is on file for "CC=C(C)C(=O)O[C@H]1C(C)=C[C@]23C(=O)[C@@H](C=C(CO)[C@@H](O)[C@]12O)[C@H]1[C@@H](C[C@H]3C)C1(C)C" ?
OUT: 78.2

IN: Could you tell me which parasite growth remaining, % of DMSO control (lower = more inhibition) is on file for CC(N[C@H]1CCCC[C@H]1NC(=O)c1ccc(Cl)cc1)c1cccc2ccccc12 (some centres undefined) ?
OUT: 79.2

IN: Could you tell me which parasite growth remaining, % of DMSO control (lower = more inhibition) is on file for CN1c2cc(O)c(N=NC(N)=O)cc2CC1S(=O)(=O)O (centres undefined) ?
OUT: 64.1

IN: Could you tell me which parasite growth remaining, % of DMSO control (lower = more inhibition) is on file for "C[C@H](CCC(=O)O)[C@H]1CC[C@H]2[C@H]3[C@@H](CC[C@]12C)[C@@]1(C)CC[C@@H](O)C[C@H]1C[C@@H]3O" ?
OUT: 12.3

IN: Could you tell me which parasite growth remaining, % of DMSO control (lower = more inhibition) is on file for "CC(=O)O[C@H]1C[C@@H]2CC[C@H]3[C@H]4C[C@H]([N+]5(C)CCCCC5)[C@@H](OC(C)=O)[C@@]4(C)CC[C@@H]3[C@@]2(C)C[C@H]1[N+]1(C)CCCCC1" ?
OUT: 88

IN: Could you tell me which parasite growth remaining, % of DMSO control (lower = more inhibition) is on file for "CCCNC(=O)Nc1ccc(Oc2ncnc3cc(OC)c(OC)cc23)cc1Cl" ?
OUT: 61.5

IN: Could you tell me which parasite growth remaining, % of DMSO control (lower = more inhibition) is on file for "O=C1C[C@@H](c2ccc(O)cc2)Oc2cc(O)cc(O)c21" ?
OUT: 72.2

IN: Could you tell me which parasite growth remaining, % of DMSO control (lower = more inhibition) is on file for "COc1ccc2cc1Oc1ccc(cc1)C[C@H]1c3cc(c(OC)cc3CCN1C)Oc1c(OC)c(OC)cc3c1[C@H](C2)N(C)CC3" ?
OUT: 72.6

IN: Could you tell me which parasite growth remaining, % of DMSO control (lower = more inhibition) is on file for CN1[C@H]2CC(OC(=O)[C@@H](CO)c3ccccc3)C[C@H]1[C@H]1O[C@H]12 (some centres undefined) ?
OUT: 107

IN: Could you tell me which parasite growth remaining, % of DMSO control (lower = more inhibition) is on file for "CC[C@H](CC[C@@H](C)[C@H]1CC[C@H]2[C@@H]3CC=C4C[C@@H](O)CC[C@]4(C)[C@@H]3CC[C@]12C)C(C)C" ?
OUT: 101

IN: Could you tell me which parasite growth remaining, % of DMSO control (lower = more inhibition) is on file for "NC(=O)c1cccc(-c2cccc(OC(=O)NC3CCCCC3)c2)c1" ?
OUT: 98

IN: Could you tell me which parasite growth remaining, % of DMSO control (lower = more inhibition) is on file for "C[C@@H](c1ncncc1F)[C@](O)(Cn1cncn1)c1ccc(F)cc1F" ?
OUT: 104

IN: Could you tell me which parasite growth remaining, % of DMSO control (lower = more inhibition) is on file for "Cc1ncc(C[n+]2csc(CCO)c2C)c(=O)[nH]1" ?
OUT: 104

IN: Could you tell me which parasite growth remaining, % of DMSO control (lower = more inhibition) is on file for "O=C(O)C(=O)Nc1cccc(C2=NN=N[N]2)c1" ?
OUT: 99.9

IN: Could you tell me which parasite growth remaining, % of DMSO control (lower = more inhibition) is on file for "CC=CCC=CCCC(=O)[C@H]1O[C@@H]1C(N)=O" ?
OUT: 87.5

IN: Could you tell me which parasite growth remaining, % of DMSO control (lower = more inhibition) is on file for "C=C1C[C@@]2(O)O[C@@]3(C[C@H]2C(C)C)[C@H](C)CC[C@H]13" ?
OUT: 75.7

IN: Could you tell me which parasite growth remaining, % of DMSO control (lower = more inhibition) is on file for "Cc1cccc2c1CC[C@H](CN1CCC(c3c(Cl)cccc3Cl)CC1)C[C@@H]2O" ?
OUT: 25.2

IN: Could you tell me which parasite growth remaining, % of DMSO control (lower = more inhibition) is on file for "CC[C@H](CC#N)OC(=O)N[C@@H](C)c1cccc(NC(=O)Nc2ccc(-c3cnco3)c(OC)c2)c1" ?
OUT: 66.9

IN: Could you tell me which parasite growth remaining, % of DMSO control (lower = more inhibition) is on file for CNC1[C@H](O)C(O[C@@H]2C(O)C(O[C@H]3O[C@H]([C@@H](C)NC)CC[C@H]3N)[C@@H](N)C[C@H]2N)OC[C@]1(C)O (some centres undefined) ?
OUT: 103
